Known GI50 of a selection of compounds
Tested on: SK-OV-3
PROTOCOL DETAILS: NCI tumour cell line growth inhibition, 48 h
Calls of active or inactive are those of the source. Rule as the data show it: active = GI50 up to about 1.1 µM and inactive = higher.
ATTRIBUTE MEASURED: GI50

| COMPOUND | SUBJECT OF TEST | RESULT VALUE |
| --- | --- | --- |
| COC(=O)[C@@H]1CCCN1CCN1CCC[C@H]1C(=O)OC | SK-OV-3 | > 100 µM (inactive) |
| N/C(=N\O)N/N=C\c1c2ccccc2c(Cl)c2ccccc12 | SK-OV-3 | 2.57 µM (inactive) |
| O=C1CCCCC1CN1CCCC1 (configuration not stated) | SK-OV-3 | > 100 µM (inactive) |
| O=C1NC(=O)C2(CCCCCC2)N1 | SK-OV-3 | > 100 µM (inactive) |
| CC(CC(=O)O)C(C(=O)O)C(=O)O (configuration not stated) | SK-OV-3 | > 100 µM (inactive) |
| Nc1cccc(OCC2CCCN3CCCCC23)c1 (configuration not stated) | SK-OV-3 | 72.9 µM (inactive) |
| CCOC(=O)CCC(C(=O)OCC)n1nnc2cc(Nc3c(C)[n+]([O-])c4ccc(Cl)cc4[n+]3[O-])ccc21 (configuration not stated) | SK-OV-3 | > 100 µM (inactive) |
| CC(C)CC(NC(=O)C(CI)Cc1ccccc1)C(=O)Nc1ccccc1 (configuration not stated) | SK-OV-3 | > 100 µM (inactive) |
| COc1ccc(OC)c(/C=C/c2ccnc3ccccc23)c1 | SK-OV-3 | 0.403 µM (active) |
| CC(C)CCc1c(Cl)nc(Cl)nc1Cl | SK-OV-3 | 17 µM (inactive) |
| CC(=O)Nc1ccccc1-c1nc2ccccc2nc1-c1ccccc1 | SK-OV-3 | > 100 µM (inactive) |
| Brc1ccc2[nH]cc(-c3csc(-c4ccccn4)n3)c2c1 | SK-OV-3 | 33 µM (inactive) |

###

System: SK-MEL-2
PROTOCOL DETAILS: NCI tumour cell line growth inhibition, 48 h
Calls of active or inactive are those of the source. Rule as the data show it: active = GI50 up to about 1.1 µM and inactive = higher.
Outcome codes: label 1 = active, label 0 = inactive

| COMPOUND | CLASS |
| --- | --- |
| CN(C)C(=O)NC(=S)N(C)C | label 0 |
| CN(C)/N=C/c1cn(C)c(=O)n(C)c1=O | label 0 |
| CCSc1nc(-c2ccc(OC)cc2)c(C#N)c(=O)n1C1OCC(OC(C)=O)C(OC(C)=O)C1OC(C)=O (stereo unspecified) | label 0 |
| COc1cc2c(cc1Oc1c(Oc3c(O)c(OC)cc4c3C(CC(C)C)N(C)CC4)c(OC)cc3c1C(CC(C)C)N(C)CC3)C(CC(C)C)N(C)CC2 (stereo unspecified) | label 1 |
| CCOc1ccc(C2=NN(CC)C(=O)C(C3C(=O)N(c4ccccc4)N=C3C)C2)cc1 (stereo unspecified) | label 0 |
| CCOc1cc(NC(C)=O)ccc1C(=O)NN1C(=O)/C(=C/c2ccc(Cl)cc2)N=C1c1ccccc1 | label 0 |
| COc1ccc(/C=C2\NC(=S)N(CN3CCOCC3)C2=O)cc1 | label 0 |
| CC1CCCc2c(CC3CC(=O)NC(=O)C3)nc(N)nc21 (stereo unspecified) | label 0 |
| O=C(CC(Cl)(Cl)C(Cl)(Cl)Cl)c1ccccc1 | label 0 |
| N#Cc1c(-c2ccc(Cl)cc2)c2c(n(C3OC(CO)C(O)C(O)C3O)c1=S)CCCC2 (stereo unspecified) | label 0 |
| Nc1cccc(OCC2CCCN3CCCCC23)c1 (stereo unspecified) | label 0 |
| C#CCOCn1cnc2c(Cl)ncnc21 | label 0 |
| CCOC(=O)c1ccc(C(=O)/C(C#N)=C2\CCCN2C)[nH]1 | label 0 |
| CC(=O)OC12c3ccccc3C1CCCCCC21OCCCO1 (stereo unspecified) | label 0 |
| COC(=O)C1=C(N)C2=C(N)Oc3ccccc3C2CC1=C(C#N)C#N (stereo unspecified) | label 0 |
| CCOC(=O)/C(=C\c1ccc(O)c(OC)c1)C(=O)c1ccccc1 | label 0 |
| CCOC(=O)C(Cc1ccc(N(CCCl)CCCl)cc1)NC(=O)C(Cc1ccccc1)NC(C)=O (stereo unspecified) | label 1 |
| C=C1CN(C(=O)c2cc3cc(OC)c(OC)c(OC)c3[nH]2)c2cc([N+](=O)[O-])ccc21 | label 0 |
| O=C(/C=C/c1csc(-c2ccccc2)n1)NCc1ccc(C(=O)NCCc2ccccc2)cc1 | label 0 |
| COc1cc(/C=C2/C(=O)N(C(=O)OCc3ccccc3)C(Cc3cc(OC)c(OC)c(C)c3OC)C(=O)N2Cc2ccccc2)c(OC)c(C)c1OC (stereo unspecified) | label 0 |
| O=C1C(=CNC(=S)c2ccccc2)C(=O)c2ccccc21 | label 0 |
